- Target System: human growth hormone secretagogue receptor type 1a (human, UniProt Q92847 1-366)
- Sequence (Q92847 whole entry): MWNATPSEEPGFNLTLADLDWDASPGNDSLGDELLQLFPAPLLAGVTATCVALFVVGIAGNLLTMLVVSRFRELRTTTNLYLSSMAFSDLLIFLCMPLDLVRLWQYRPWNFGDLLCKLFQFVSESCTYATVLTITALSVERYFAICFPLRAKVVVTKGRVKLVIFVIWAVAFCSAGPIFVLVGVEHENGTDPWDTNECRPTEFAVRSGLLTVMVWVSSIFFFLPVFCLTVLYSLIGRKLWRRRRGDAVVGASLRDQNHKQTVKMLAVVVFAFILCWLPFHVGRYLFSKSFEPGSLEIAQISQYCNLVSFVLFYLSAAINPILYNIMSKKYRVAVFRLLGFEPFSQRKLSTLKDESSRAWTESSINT
- Assay: cell-based or functional assay
[ ]: non-standard residue; d: D form. The star is where a group is joined. Octanoyl = CCCCCCCC(=O)*; Dap = NC[C@H](N)C(=O)O; Octyl = CCCCCCCC*
Measurement Name: EC50 (nM); Ca2+ induction in HEK293 cells stably expressing the human ghrelin receptor

>  <Binder>
H-PS[NH‑CH(n-C10H21)‑C(O)]FLSPEHQRVQQRKES-NH2 [H-PS-[NH-CH(n-C10H21)-C(O)]-FLSPEHQRVQQRKES-NH2]

>  <Result Units>
nM

>  <Reported Measurement>
0.164

$$$$
>  <Binder>
RSFLSPEHQRVQQRKESKKPPAKLQPR (N-terminal Ac-Orn (acetylated ornithine, stands for X1 and X2 together); next residue Ser(O-octyl) (position 3 of the formula); C-terminal amide (-NH2)) [Ac-Orn-S(O-octyl)-FLSPEHQRVQQRKESKKPPAKLQPR-NH2]

>  <Result Units>
nM

>  <Reported Measurement>
1.4

$$$$
>  <Binder>
H-PSS(Octyl)FLSPK-NH2 (SMILES CCCCCCCCOC[C@H](NC(=O)[C@H](CO)NC(=O)[C@@H]1CCCN1)C(=O)N[C@@H](Cc1ccccc1)C(=O)N[C@@H](CC(C)C)C(=O)N[C@@H](CO)C(=O)N1CCC[C@H]1C(=O)N[C@@H](CCCCN)C(N)=O) [H-PS-S(O-octyl)-FLSPK-NH2]

>  <Result Units>
nM

>  <Reported Measurement>
0.388

$$$$
>  <Binder>
H-PS[Dap](Octanoyl)FLSPY-NH2 (SMILES CCCCCCCC(=O)NC[C@H](NC(=O)[C@H](CO)NC(=O)[C@@H]1CCCN1)C(=O)N[C@@H](Cc1ccccc1)C(=O)N[C@@H](CC(C)C)C(=O)N[C@@H](CO)C(=O)N1CCC[C@H]1C(=O)N[C@@H](Cc1ccc(O)cc1)C(N)=O) [H-PS-Dap(N-octanoyl)-FLSPY-NH2]

>  <Result Units>
nM

>  <Reported Measurement>
0.195

$$$$
>  <Binder>
H-PS[Dap](Octanoyl)FLSPK-NH2 (SMILES CCCCCCCC(=O)NC[C@H](NC(=O)[C@H](CO)NC(=O)[C@@H]1CCCN1)C(=O)N[C@@H](Cc1ccccc1)C(=O)N[C@@H](CC(C)C)C(=O)N[C@@H](CO)C(=O)N1CCC[C@H]1C(=O)N[C@@H](CCCCN)C(N)=O) [H-PS-Dap(N-octanoyl)-FLSPK-NH2]

>  <Result Units>
nM

>  <Reported Measurement>
0.364

$$$$
>  <Binder>
H-PSS(Octyl)FLSPEHSRPSSR-NH2 (SMILES CCCCCCCCOC[C@H](NC(=O)[C@H](CO)NC(=O)[C@@H]1CCCN1)C(=O)N[C@@H](Cc1ccccc1)C(=O)N[C@@H](CC(C)C)C(=O)N[C@@H](CO)C(=O)N1CCC[C@H]1C(=O)N[C@@H](CCC(=O)O)C(=O)N[C@@H](Cc1c[nH]cn1)C(=O)N[C@@H](CO)C(=O)N[C@@H](CCCNC(=N)N)C(=O)N1CCC[C@H]1C(=O)N[C@@H](CO)C(=O)N[C@@H](CO)C(=O)N[C@@H](CCCNC(=N)N)C(N)=O) [H-PS-S(O-octyl)-FLSPEHSRPSSR-NH2]

>  <Result Units>
nM

>  <Reported Measurement>
0.341

$$$$

[P] H-PSS(Octyl)FLSPEHQRVQQRKESKKPPAKLQPR-OH [H-PS-S(O-octyl)-FLSPEHQRVQQRKESKKPPAKLQPR-OH]
[Q] H-PS[NH‑CH(n-C10H21)‑C(O)]FLSPEHQRVQRKESKKPPAKLQPR-NH2 [H-PS-[NH-CH(n-C10H21)-C(O)]-FLSPEHQRVQRKESKKPPAKLQPR-NH2]
IN: I'd appreciate it if you could identify which of P and Q has the greater EC50 (nM); Ca2+ induction in HEK293 cells stably expressing the human ghrelin receptor. Answer by quoting the chosen item's label.
OUT: P

Source listed as patent US9657062B2.
